tested_system: PD-1 (Homo sapiens (Human)) (UniProt Q15116)
Sequence (Q15116 21-288 limits assumed): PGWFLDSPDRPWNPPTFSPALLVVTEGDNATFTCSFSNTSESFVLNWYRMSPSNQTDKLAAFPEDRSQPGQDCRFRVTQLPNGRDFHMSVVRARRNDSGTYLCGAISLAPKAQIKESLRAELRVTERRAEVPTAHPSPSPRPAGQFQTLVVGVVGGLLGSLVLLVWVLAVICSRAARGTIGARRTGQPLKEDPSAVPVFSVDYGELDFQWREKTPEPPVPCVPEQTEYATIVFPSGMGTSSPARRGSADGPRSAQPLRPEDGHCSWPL
experimental_details: flow cytometry, Jurkat/PD-1 cells; vs wildtype PD-L2 IgV-Fc
Measured log10(Fold increase over wildtype PD-L2 IgV-Fc) values are reported for all entries that follow.
Answers are given as log10 of Fold increase over wildtype PD-L2 IgV-Fc in fold.

For reference, reported log10(Fold increase over wildtype PD-L2 IgV-Fc) for variant PD-L2 IgV-Fc S39I, V89D (Fc fusion, not shown: a dimerising Fc or GST; small tags and cut ends) LFTVTVPKELYIIEHGSNVTLECNFDTGSHVNLGAITAILQKVENDTSPHRERATLLEEQLPLGKASFHIPQVQVRDEGQYQCIIIYGDAWDYKYLTLK stands at 0.42
